target: UniProt:P02550; experiment: Compound was evaluated for its anti tubulin activity
pIC50: −log10 of the molar value.
endpoint-label: pIC50

{"compound": "C=CC[C@@H](CC/C(C)=C/C=C/CC/C=C\\[C@@H]1CSC(C2CC2C)=N1)OC (single isomer, unassigned) [CURACIN A]", "endpoint-label": "pIC50", "value-measured": 5.60}

###

target: Tubulin alpha chain (Sus scrofa); assay: Compound was tested for percentage of tubulin polymerized at 50 uM dose of compound; type: functional
Sequence (P02550 whole entry, looked up): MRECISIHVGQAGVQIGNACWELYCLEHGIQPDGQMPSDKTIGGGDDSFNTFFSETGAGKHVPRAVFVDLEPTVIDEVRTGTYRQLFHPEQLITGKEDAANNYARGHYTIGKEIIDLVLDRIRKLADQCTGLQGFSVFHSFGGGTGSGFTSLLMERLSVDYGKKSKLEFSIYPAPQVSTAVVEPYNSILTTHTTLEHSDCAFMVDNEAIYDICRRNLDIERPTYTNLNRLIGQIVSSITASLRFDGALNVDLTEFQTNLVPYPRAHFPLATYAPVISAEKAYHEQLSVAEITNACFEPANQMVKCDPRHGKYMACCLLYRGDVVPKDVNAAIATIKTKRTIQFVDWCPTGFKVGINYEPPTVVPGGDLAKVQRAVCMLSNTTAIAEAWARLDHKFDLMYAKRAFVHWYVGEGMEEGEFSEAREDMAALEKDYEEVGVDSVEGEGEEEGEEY
// reported Activity for each item listed

{"chemical-smiles": "C/C=C/CC/C=C\\[C@@H]1CSC([C@@H]2C[C@@H]2C)=N1", "Activity": "84%"}
{"chemical-smiles": "CCCCCCCCCCCC/C=C\\[C@@H]1CSC([C@@H]2C[C@@H]2C)=N1", "Activity": "100%"}
{"chemical-smiles": "C[C@H]1C[C@H]1C1=N[C@H](/C=C\\CCc2ccccc2)CS1", "Activity": "71%"}
{"chemical-smiles": "C[C@H]1C[C@H]1C1=N[C@H](/C=C\\CCCc2ccccc2)CS1", "Activity": "93%"}
{"chemical-smiles": "CCCCCCc1ccc(CC/C=C\\[C@@H]2CSC([C@@H]3C[C@@H]3C)=N2)cc1", "Activity": "95%"}
{"chemical-smiles": "CC(C)=C/C=C/CC/C=C\\[C@@H]1CSC([C@@H]2C[C@@H]2C)=N1", "Activity": "100%"}
{"chemical-smiles": "CCCCCCCc1cccc(CC/C=C\\[C@@H]2CSC([C@@H]3C[C@@H]3C)=N2)c1", "Activity": "85%"}
